assay: qHTS of pediatric cancer cell lines to identify multiple opportunities for drug repurposing: Confirmatory screen for LAN-5 cells (AID 1347113); settings: LAN-5 neuroblastoma cell viability; series mostly up to 45.9 µM; also: nearly all actives have a fitted effect of over 65% in size
Records with an inconclusive call do not appear. Calls of active or inactive are those of the source. Calls follow the shape of the dose curve; as a rule, active = well fitted cell-killing curve with a large enough effect; inconclusive = small, poorly fitted or top-dose-only effect, or effect the other way; inactive = no such curve, though single readings can be large or run the other way.
Give one outcome, nothing more. List: active, inactive

Solved entries:
**Q:** Assay result, entry "CC(C)NC[C@@H](C(=O)N1CCN(c2ncnc3c2[C@H](C)C[C@H]3O)CC1)c1ccc(Cl)cc1" — outcome?
**A:** active

**Q:** Assay result, entry "COC(=O)[C@@H]1[C@H]2C[C@@H]3c4[nH]c5ccccc5c4CCN3C[C@@H]2CC[C@@H]1O" — outcome?
**A:** inactive

**Q:** Assay result, entry "COc1cccc2c1C(=O)c1c(O)c3c(c(O)c1C2=O)C[C@@](O)(C(=O)CO)C[C@@H]3O[C@H]1C[C@H](N)[C@@H](O)[C@H](C)O1" — outcome?
**A:** active

**Q:** Assay result, entry "C=CC(=O)N1CCc2ccc(-n3c(=O)ccc4cnc5ccc(-c6cnn(C)c6)cc5c43)cc21" — outcome?
**A:** active

**Q:** Assay result, entry CC(C(C)N1CC(=O)NC(=O)C1)N1CC(=O)NC(=O)C1 (stereo not drawn) — outcome?
**A:** inactive

---
**Q:** Assay result, entry "CC(=O)ON=C1C(c2c(O)[nH]c3cc(Br)ccc23)=Nc2ccccc21" — outcome?
**A:** active

**Q:** Assay result, entry "C=C1C(=CC=C2CCC[C@]3(C)[C@@H]([C@H](C)CCCC(C)(C)O)CC[C@@H]23)C[C@@H](O)C[C@@H]1O" — outcome?
**A:** inactive

**Q:** Assay result, entry "C[C@@H](Oc1ccc2[nH]nc(C=Cc3cnn(CCO)c3)c2c1)c1c(Cl)cncc1Cl" — outcome?
**A:** active

----------
assay: Quantitative High-Throughput drug screen in 47 multiple myeloma cell lines against the NCATS MIPE library collection: VP6_DJ cell viability assay (AID 1919867); settings: ATP luminescence, 48 h; series mostly up to 45.8 µM; also: nearly all actives have a fitted effect of over 40% in size; also: potency is read from the fitted curve at half-maximal effect
Results filed as inconclusive are left out. The source made the active and inactive calls. The call rests on the fitted dose curve; in most records, active means well fitted cell-killing curve with a large enough effect; inconclusive means small, poorly fitted or top-dose-only effect, or effect the other way; inactive means no such curve, though single readings can be large or run the other way.
outcome-measure: Potency

Record "CC(=O)O[C@]1(C(C)=O)CC[C@H]2[C@@H]3C=C(C)C4=CC(=O)CC[C@]4(C)[C@@H]3CC[C@@]21C" . Reported Potency: 7.43 µM (active)

Record C#CCC(Cc1cnc2nc(N)nc(N)c2n1)c1ccc(C(=O)N[C@@H](CCC(=O)O)C(=O)O)cc1 (stereo not given in full) . Reported Potency: 0.118 µM (active)

Record "COc1cc([C@@H]2c3cc4c(cc3[C@H](O)[C@H]3COC(=O)[C@@H]23)OCO4)cc(OC)c1OC" . Reported Potency: 0.296 µM (active)

Record "c1cc(N[C@@H]2CCNC2)nc(-c2cnc3ccc(-c4cn[nH]c4)cn23)c1" . Reported Potency: 14.8 µM (active)

Record "O=C1NCCc2[nH]c(-c3ccncc3)cc21" . Reported Potency: 3.72 µM (active)

---
Record "CCOC(=O)[C@H](CCc1ccccc1)N[C@@H](C)C(=O)N1[C@@H](C(=O)O)C[C@H]2CCC[C@@H]21" . Reported Potency: 6.62 µM (active)

Record "N#CC(=Cc1ccc(O)c(O)c1)C(=O)NCc1ccccc1" . Reported Potency: 18.7 µM (active)

Record COc1cc(C)c(Sc2cnc(NC(=O)c3ccc(CNC(C)C(C)(C)C)cc3)s2)cc1C(=O)N1CCN(C(C)=O)CC1 (stereo not given) . Reported Potency: 8.33 µM (active)

Record "OCCN1C[C@H](O)[C@@H](O)[C@H](O)[C@@H]1CO" . Reported Potency: inactive

Record "c1cc(CN2CCCNCCNCCCNCC2)ccc1CN1CCCNCCNCCCNCC1" . Reported Potency: inactive

Record "CS(=O)(=O)N1CCc2c(-c3cnc(N)nc3)nc(N3CCOCC3)nc21" . Reported Potency: 0.418 µM (active)

Record "Cc1cc(Nc2ncc3c(n2)N(C)C(=O)N(c2cc(NC(=O)c4cccc(C(F)(F)F)c4)ccc2C)C3)n(C)n1" . Reported Potency: 0.935 µM (active)

Record "O=C1NC(=O)[C@@H](c2cn3c4c(cccc24)CCC3)[C@H]1c1c[nH]c2ccccc12" . Reported Potency: 0.526 µM (active)

Record "c1ccc2c(Oc3nc(Nc4ccc(N5CCOCC5)cc4)c4ncn(C5CCCCC5)c4n3)cccc2c1" . Reported Potency: 14.8 µM (active)

Record "O=C(CN1C(=O)C2(CCCC2)NC[C@H]1c1cc(F)cc(F)c1)Nc1ccc2c(c1)C[C@@]1(C2)C(=O)Nc2ncccc21" . Reported Potency: inactive

Record "NS(=O)(=O)OC[C@@H]1C[C@@H](n2ccc3c(N[C@H]4CCc5ccccc54)ncnc32)C[C@H]1O" . Reported Potency: 1.48 µM (active)

Record "c1coc(CNc2ncnc3nc[nH]c23)c1" . Reported Potency: 18.7 µM (active)

----------
test: qHTS of pediatric cancer cell lines to identify multiple opportunities for drug repurposing: Primary screen for DAOY cells (AID 1347090); conditions: DAOY medulloblastoma viability, CellTiter-Glo luminescence, 48 h; series mostly up to 46 µM; also: nearly all actives have a fitted effect of over 55% in size; also: potency is read from the fitted curve at half-maximal effect
Results filed as inconclusive are left out. Active and inactive are the calls of the source. Calls come from the whole dose curve; as a rule, active = well fitted cell-killing curve with a large enough effect; inconclusive = small, poorly fitted or top-dose-only effect; inactive = flat fitted curve, though single readings scatter.
outcome-measure: Potency

Record C=C[C@@H]1CN2CCC1C[C@H]2[C@H](O)c1ccnc2ccc(OC)cc12 (some centres undefined) . Reported Potency: inactive

Record CC(N[C@H]1CCCC[C@H]1NC(=O)c1ccc(Cl)cc1)c1cccc2ccccc12 (some centres undefined) . Reported Potency: 29.6 nM (active)

Record "C[C@@H]1[C@H](C)CC[C@]2(C(=O)O)CC[C@]3(C)C(=CC[C@@H]4[C@@]5(C)C[C@@H](O)[C@H](O)[C@@](C)(CO)[C@H]5CC[C@]43C)[C@@H]12" . Reported Potency: inactive

Record "CC(=O)O[C@H]1C[C@@H]2CC[C@H]3[C@H]4C[C@H]([N+]5(C)CCCCC5)[C@@H](OC(C)=O)[C@@]4(C)CC[C@@H]3[C@@]2(C)C[C@H]1[N+]1(C)CCCCC1" . Reported Potency: inactive

----------
assay: Quantitative High-Throughput drug screen in 47 multiple myeloma cell lines against the NCATS MIPE library collection: L363_DSMZ cell viability assay (AID 1918984); details: L363 myeloma viability, CellTiter-Glo ATP luminescence, 48 h; series mostly up to 45.8 µM; also: nearly all actives have a fitted effect of over 40% in size
Inconclusive results are not listed. Activity calls are given as the source filed them. The call rests on the fitted dose curve; in most records, active means well fitted cell-killing curve with a large enough effect; inconclusive means small, poorly fitted or top-dose-only effect, or effect the other way; inactive means no such curve, though single readings can be large or run the other way.
Give one outcome, nothing more. List: TRUE for active, FALSE for inactive

Solved entries:
**Q:** Assay result, entry "C[C@H]1COc2c(N3CCN(C)CC3)c(F)cc3c(=O)c(C(=O)O)cn1c23" — outcome?
**A:** FALSE

**Q:** Assay result, entry "C=C1C(=O)O[C@H]2[C@@H]1CCC(C)=CCC[C@@]1(C)O[C@@H]21" — outcome?
**A:** TRUE

**Q:** Assay result, entry "Cc1[nH]c(C=C2C(=O)Nc3ccccc32)c(C)c1CCC(=O)O" — outcome?
**A:** TRUE

---
**Q:** Assay result, entry C[C@H]1O[C@H](O[C@H]2[C@H](O)[C@@H](O)[C@@H](O[C@H]3[C@H](O)[C@@H](O)C(O)O[C@H]3CO)O[C@H]2CO)[C@H](O)[C@@H](O)[C@H]1N[C@H]1C=C(CO)[C@@H](O)[C@H](O)[C@@H]1O (some centres undefined) — outcome?
**A:** TRUE

----------
assay: Quantitative High-Throughput drug screen in 47 multiple myeloma cell lines against the NCATS MIPE library collection: MM1S_ATCC cell viability assay (AID 1918980); details: MM1S myeloma viability, CellTiter-Glo ATP luminescence, 48 h; series mostly up to 45.8 µM; also: nearly all actives have a fitted effect of over 45% in size
Inconclusive results are not listed. Active and inactive are the calls of the source. Calls follow the shape of the dose curve; as a rule, active = well fitted cell-killing curve with a large enough effect; inconclusive = small, poorly fitted or top-dose-only effect, or effect the other way; inactive = no such curve, though single readings can be large or run the other way.
Give one outcome, nothing more. List: t for active, f for inactive

Solved entries:
**Q:** Assay result, entry "COc1ccc2cc([S+]([O-])Cc3ncc(C)c(OC)c3C)nc2c1" — outcome?
**A:** f

**Q:** Assay result, entry "CC[C@@]1([C@@H]2O[C@@H]([C@H]3O[C@@](O)(CO)[C@H](C)C[C@H]3C)C[C@H]2C)CC[C@H]([C@]2(C)CC[C@]3(C[C@H](O)[C@@H](C)[C@@H]([C@@H](C)[C@@H](OC)[C@H](C)C(=O)O)O3)O2)O1" — outcome?
**A:** t

**Q:** Assay result, entry "O=C(C=CC#Cc1cccc(NS(=O)(=O)c2ccccc2)c1)NO" — outcome?
**A:** t

Below: the item to evaluate.
**Q:** Assay result, entry "COc1cc(OC)c(C=CS(=O)(=O)Cc2ccc(OC)c(NCC(=O)O)c2)c(OC)c1" — outcome?
**A:** t

----------
test system: NIH3T3; experiment: Cytotoxic Profiling of Annotated Libraries Using Quantitative High-Throughput Screening (AID 1296008); conditions: Five cell lines viability, CellTiter-Glo ATP luminescence, 48-72 h; also: nearly all actives have a fitted effect of over 60% in size; also: potency is read from the fitted curve at half-maximal effect
Records with an inconclusive call do not appear. Calls of active or inactive are those of the source. Calls come from the whole dose curve; as a rule, active = well fitted inhibition curve with a large enough effect; inconclusive = small, poorly fitted or top-dose-only effect; inactive = flat fitted curve, though single readings scatter. Positions of bridges follow the written chain, without caps; N, C: chain ends. Non-standard residues stand in square brackets, D forms with d. Residues, ends and D or L forms follow the SMILES beside them. ξ: configuration not given here. *: point of attachment. Octanoyl(6-Me) = CCC(C)CCCCC(=O)*; ξThr(3R) = C[C@@H](O)C(N)C(=O)O; dDab = NCC[C@@H](N)C(=O)O; Dab = NCC[C@H](N)C(=O)O
outcome-measure: Potency

// solved cases for Potency follow
Record "C=CCNC1=C2C[C@@H](C)C[C@H](OC)[C@@H](O)[C@@H](C)C=C(C)[C@H](OC(N)=O)[C@@H](OC)C=CC=C(C)C(=O)NC(=CC1=O)C2=O" . Reported Potency: 0.526 µM (active)

Record "C[C@@]12C[C@@]3(O)O[C@@H](O1)[C@]1(COC(=O)c4ccccc4)[C@@H]3C[C@@]12O[C@@H]1O[C@H](CO)[C@@H](O)[C@H](O)[C@@H]1O" . Reported Potency: inactive

Record "CC1(C)[C@H](O[C@H]2O[C@H](C(=O)O)[C@@H](O)[C@H](O)[C@H]2O[C@@H]2O[C@H](C(=O)O)[C@@H](O)[C@H](O)[C@H]2O)CC[C@@]2(C)[C@H]1CC[C@]1(C)[C@H]2C(=O)C=C2[C@H]3C[C@@](C)(C(=O)O)CC[C@]3(C)CC[C@]21C" . Reported Potency: inactive

Record "CCCCCCCCCCCCc1ccc(S(=O)(=O)Nc2nncs2)cc1" . Reported Potency: inactive

---
Record "CC(C)(N)c1ccc(-c2nc3ccccc3nc2-c2ccccc2)cc1" . Reported Potency: 25.9 µM (active)

Record "CC(C)[C@H](CO)Nc1nc(Nc2cccc(Cl)c2)c2ncn(C(C)C)c2n1" . Reported Potency: 10.5 µM (active)

Record "CCNC(=O)Nc1ccc(-c2nc3c(c(N4CCOC[C@H]4C)n2)CCN(C2COC2)C3)cc1" . Reported Potency: 5.9 µM (active)

Record "CCn1c(=O)c2c(nc(C=Cc3ccc(OC)c(OC)c3)n2C)n(CC)c1=O" . Reported Potency: inactive

Record CCC(C(=O)O)C1CCC(C)C(C(C)C(O)C(C)C(=O)C(CC)C2OC3(C=CC(O)[C@@]4(CC[C@](C)(C5CC[C@@](O)(CC)C(C)O5)O4)O3)C(C)CC2C)O1 (stereo partly drawn) . Reported Potency: 8.33 µM (active)

Record C[C@]12CCC(=O)C=C1[C@@H]1CC1[C@H]1[C@H]3[C@@H]4C[C@H]4[C@@]4(CCC(=O)O4)[C@@]3(C)CC[C@H]12 (stereo partly drawn) . Reported Potency: inactive

Record "CN(C)CCN1C(=O)c2cccc3cc(N)cc(c23)C1=O" . Reported Potency: 3.32 µM (active)

Record "N=c1ccn2c(n1)O[C@H]1[C@@H](O)[C@@H](CO)O[C@H]12" . Reported Potency: 3.32 µM (active)

Record CCC(C)CCCCC(=O)N[C@@H](CCN)C(=O)NC(C(=O)N[C@H](CCN)C(=O)N[C@@H]1CCNC(=O)C([C@@H](C)O)NC(=O)[C@@H](CCN)NC(=O)[C@@H](CCN)NC(=O)[C@@H](CC(C)C)NC(=O)[C@H](Cc2ccccc2)NC(=O)[C@H](CCN)NC1=O)[C@@H](C)O (stereo partly drawn) ({Octanoyl(6-Me)}-[Dab][ξThr(3R)][dDab][dDab][Dab]F[dL][dDab][dDab][ξThr(3R)]; lactam 4-C) . Reported Potency: inactive
